FYI, the data here is from patent US20040248887A1.

Test target: UniProt:P07711
Sequence (P07711 114-333, species assumed): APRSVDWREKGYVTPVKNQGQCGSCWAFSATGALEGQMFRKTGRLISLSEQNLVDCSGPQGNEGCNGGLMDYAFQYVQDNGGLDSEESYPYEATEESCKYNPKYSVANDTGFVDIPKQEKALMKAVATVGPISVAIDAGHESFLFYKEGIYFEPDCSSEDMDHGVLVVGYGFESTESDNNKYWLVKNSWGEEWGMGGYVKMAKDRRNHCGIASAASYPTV
Protocol description: Cathepsin L inhibition, fluorogenic peptide substrate kinetic assay
Format: biochemical
Measurement conditions: Table III; Cathepsin L inhibition constant, pH5.5; read-out: Ki Cat. L
pKi: −log10 of the molar value.
Listed next: entries and their corresponding pKi.

Example cases with answers are listed next.
Cc1cccc(C(=O)N[C@@H](CC2CCCC2)C(=O)NCCN2CCc3cc(F)ccc32)c1 = > 6.00
C[C@@H](CNc1ccc(OC(F)(F)F)cc1)NC(=O)[C@H](CC1CCCCC1)NS(=O)(=O)c1cccc(Cl)c1 = > 5.00

Now look at this entry.
// Input: COC(=O)c1cccc(NC[C@H](C)NC(=O)[C@H](CC2CCCCC2)NC(=O)c2ccc(-c3cccc(F)c3)o2)c1 . Output its pKi only.
> 5.00

###

Test target: UniProtKB P25774
Protocol description: Cathepsin S inhibition, fluorogenic peptide substrate kinetic assay
Format: biochemical
Measurement conditions: Table II; Cathepsin S inhibition constant, pH5.5; read-out: Ki Cat. S
pKi: −log10 of the molar value.
Reported metric: pKi

O=C(N[C@@H](CC1CCCCC1)C(=O)NCCN1CCc2cc(F)ccc21)c1ccco1 = > 7.00

// Input: CC[C@@H](C(=O)N[C@@H](CC1CCCCC1)C(=O)NCCN1CCc2cc(F)ccc21)c1ccccc1 . Output its pKi only.
> 7.00

// Input: Cc1nc(C)c(S(=O)(=O)N[C@@H](CC2CCCCC2)C(=O)N[C@@H](C)CN2CCc3cc(F)ccc32)s1 . Output its pKi only.
> 7.00

// Input: COc1cccc(C(=O)N[C@@H](CCC2CCCCC2)C(=O)NCCN2CCc3cccc(F)c32)c1 . Output its pKi only.
> 5.00

// Input: CS(=O)(=O)c1cccc(C(=O)N[C@@H](CC2CCCCC2)C(=O)NCCN2CCc3cc(F)ccc32)c1 . Output its pKi only.
> 7.00

###

Test target: Cathepsin S (Homo sapiens, UniProt P25774)
Sequence (P25774 115-331, species assumed): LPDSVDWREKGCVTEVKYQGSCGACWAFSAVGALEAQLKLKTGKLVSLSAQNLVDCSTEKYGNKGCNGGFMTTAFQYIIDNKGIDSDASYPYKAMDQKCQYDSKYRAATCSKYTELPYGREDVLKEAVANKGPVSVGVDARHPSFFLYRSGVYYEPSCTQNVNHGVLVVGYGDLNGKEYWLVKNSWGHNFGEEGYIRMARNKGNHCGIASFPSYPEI
Protocol description: Cathepsin S inhibition, fluorogenic peptide substrate kinetic assay
Format: biochemical
Measurement conditions: Table II; Cathepsin S inhibition constant, pH5.5; read-out: Ki Cat. S
pKi: −log10 of the molar value.
Reported metric: pKi

Example cases with answers are listed next.
C[C@@H](CN1CC(C)(C)c2cc(F)ccc21)NC(=O)[C@H](CC1CCCCC1)NC(=O)[C@H]1CCCO1 [Compound 273] = > 7.00
O=C(NCCN1CCc2cc(F)ccc21)[C@H](CC1CCCCC1)NS(=O)(=O)c1ccsc1 [Compound 248] = > 6.00
COc1cccc(C(=O)N[C@@H](CC2CCCCC2)C(=O)N[C@@H](COCc2ccccc2)CN2CCc3cc(F)ccc32)c1 [Compound 149] = > 7.00
C[C@@H](CN1c2ccc(F)cc2CC1(C)C)NC(=O)[C@H](CC1CCCCC1)NC(=O)[C@H]1CCCO1 [Compound 274] = > 6.00
COc1ccc(NC[C@H](COCc2ccccc2)NC(=O)[C@H](CC(C)C)NC(=O)c2cccc(C)c2)cc1 [Compound 35] = > 7.00

// Input: COc1cccc(C(=O)N[C@@H](CC(C)(C)C)C(=O)N[C@@H](Cc2nnn[nH]2)CN2CCc3cc(F)ccc32)c1 [Compound 166] . Output its pKi only.
> 7.00

// Input: O=C(N[C@@H](CC1CCCCC1)C(=O)NCCN1CCc2cc(F)ccc21)C1CCN(S(=O)(=O)c2ccccc2)CC1 [Compound 58] . Output its pKi only.
> 6.00

// Input: C[C@@H](CNc1ccc(C#N)cc1)NC(=O)[C@H](CC1CCCCC1)NC(=O)c1ccc(-c2cccc(F)c2)o1 [Compound 93] . Output its pKi only.
> 6.00

###

Test target: Cathepsin S (Homo sapiens, UniProt P25774)
Protocol description: Cathepsin S inhibition, fluorogenic peptide substrate kinetic assay
Assay type: biochemical
Measurement conditions: Table II; Cathepsin S inhibition constant, pH5.5; read-out: Ki Cat. S
pKi: −log10 of the molar value.
Reported metric: pKi

// Input: C[C@@H](CNc1ccc(OC(F)(F)F)cc1)NC(=O)[C@H](CC1CCCCC1)NC(=O)OC1CCOCC1 [Compound 184] . Output its pKi only.
> 7.00

// Input: CC(=O)Nc1cccc(NC[C@H](C)NC(=O)[C@H](CC2CCCCC2)NC(=O)c2ccc(-c3cccc(F)c3)o2)c1 [Compound 134] . Output its pKi only.
> 7.00

###

Listed next: entries and their corresponding Ki.
Test target: Cathepsin S (Homo sapiens)
Protocol description: Cathepsin S inhibition, fluorogenic peptide substrate kinetic assay
Type: biochemical
Measurement conditions: Table II; Cathepsin S inhibition constant, pH5.5; read-out: Ki Cat. S

Example cases with answers are listed next.
C[C@@H](CNc1cccc(F)c1F)NC(=O)[C@H](CC1CCCCC1)NC(=O)c1ccc(-c2cccc(F)c2)o1 = < 100 nM
CS(=O)(=O)c1ccc(C(=O)N[C@@H](CC2CCCCC2)C(=O)NCCN2CCc3cc(F)ccc32)s1 = < 100 nM
Cc1cccc(C(=O)N[C@@H](Cc2ccccc2)C(=O)NC(C)(C)CN2CCc3cc(F)ccc32)c1 = < 10000 nM
O=C(NCCN1CCc2cc(F)ccc21)[C@H](CC1CCCCC1)NS(=O)(=O)c1cccs1 = < 1000 nM
C[C@@H](CN1CCc2cc(F)ccc21)NC(=O)[C@H](CC1CCCCC1)NS(=O)(=O)c1csc(-c2cnco2)c1 = < 100 nM
Cc1cccc(S(=O)(=O)N[C@@H](CC(C)(C)C)C(=O)N[C@@H](CC(=O)O)CN2CCc3cc(F)ccc32)c1 = < 100 nM
COc1cccc(S(=O)(=O)N[C@@H](CC2CCCCC2)C(=O)NCCN2CCc3cc(F)ccc32)c1 = < 1000 nM
C[C@@H](CNc1ccc2c(c1)OCO2)NC(=O)[C@H](CC1CCCCC1)NC(=O)c1ccc(-c2cccc(F)c2)o1 = < 100 nM
C[C@@H](CNc1ccc(OC(F)(F)F)cc1)NC(=O)[C@H](CC1CCCCC1)NS(=O)(=O)c1cccc(Cl)c1 = < 100 nM
C[C@@H](CNc1ccc(OC(F)(F)F)cc1)NC(=O)[C@H](CC1CCCC1)NC(=O)O[C@@H]1CCOC1 = < 100 nM

// Input: CS(=O)(=O)N[C@@H](CC1CCCCC1)C(=O)NCCN1CCc2cc(F)ccc21 . Output its Ki only.
< 10000 nM

// Input: C[C@@H](CN1CCc2cc(F)ccc21)NC(=O)[C@H](CC1CCCCC1)NC(=O)OCc1ccccc1 . Output its Ki only.
< 100 nM

// Input: C[C@@H](CNc1ccc(OC(F)(F)F)cc1)NC(=O)[C@H](CC1CCCCC1)NC(=O)c1ccc(-c2ccc[n+]([O-])c2)o1 . Output its Ki only.
< 100 nM
